Please provide measured phosphorylation enrichment for the entries that follow.
target: FGFR3 (UniProt P22607); assay: phosphorylation enrichment, bacterial display (enrichment ratio); higher = better substrate or ligand; peptides without Tyr show the background
Sequence (P22607 whole entry, looked up): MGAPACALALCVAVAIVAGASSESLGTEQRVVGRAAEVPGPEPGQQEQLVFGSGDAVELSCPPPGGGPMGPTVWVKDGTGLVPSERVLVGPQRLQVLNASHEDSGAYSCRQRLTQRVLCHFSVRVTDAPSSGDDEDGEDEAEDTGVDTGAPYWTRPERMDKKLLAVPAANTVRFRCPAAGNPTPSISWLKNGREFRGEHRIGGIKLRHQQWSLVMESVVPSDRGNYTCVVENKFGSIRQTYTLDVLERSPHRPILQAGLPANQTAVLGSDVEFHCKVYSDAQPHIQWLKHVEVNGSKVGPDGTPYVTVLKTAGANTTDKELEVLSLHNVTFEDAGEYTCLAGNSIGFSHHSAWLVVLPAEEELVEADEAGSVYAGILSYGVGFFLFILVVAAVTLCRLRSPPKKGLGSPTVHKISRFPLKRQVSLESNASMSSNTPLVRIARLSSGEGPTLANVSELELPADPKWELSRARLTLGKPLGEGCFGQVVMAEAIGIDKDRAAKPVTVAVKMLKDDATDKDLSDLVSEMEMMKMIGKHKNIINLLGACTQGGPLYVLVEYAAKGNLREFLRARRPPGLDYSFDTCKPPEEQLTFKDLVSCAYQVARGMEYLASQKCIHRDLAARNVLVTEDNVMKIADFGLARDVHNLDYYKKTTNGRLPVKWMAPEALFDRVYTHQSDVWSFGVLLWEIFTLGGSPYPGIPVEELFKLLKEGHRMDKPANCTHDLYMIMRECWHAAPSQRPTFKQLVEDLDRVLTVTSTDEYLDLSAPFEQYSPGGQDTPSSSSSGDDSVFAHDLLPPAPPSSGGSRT
Give bare numbers.

>>> endpoint_value("VHLYAYDWISI [BEST1_Y227_G222V]")
4.71
>>> endpoint_value("SDGHEYIFVDR [PDGFRB_Y579_P584R_YF]")
0.833
>>> endpoint_value("ALRHFYKLNII [ETV6_Y402_YF]")
0.628

Required: phosphorylation enrichment, one value per sequence below.
1. QPAGNYSLSSV [ARFGAP3_Y473]
2. FSNPAYYVLEG [INPPL1_Y986_N982S]

Output:
[0.75, 7.89]

Required: phosphorylation enrichment, one value per sequence below.
1. PLRAYYLIARV [HLCS_Y635_D634Y]
2. AGLVQYFMEHH [PTPN11_Y80_E76G_YF]

Output:
1: 1.31; 2: 0.782

Required: phosphorylation enrichment, one value per sequence below.
1. SVTCTGSPALN [TP53_Y126_Y126G]
2. AKVKPYINGTS [IBTK_Y1064_V1065I]
3. LKKLEYLNLPL [LRRC6_Y70_A74P]
4. SSRKEYFIGGG [GYPC_Y126]
5. FEPDAYFDLDQ [ELP5_Y302_D303Y_YF]
6. QMRLKYSQSDL [SMC1A_Y714]

Output:
[0.511, 0.408, 1.12, 0.478, 4.43, 0.453]

----------
molecular target: MERTK (UniProt Q12866); test: phosphorylation enrichment, bacterial display (enrichment ratio); higher = better substrate or ligand; peptides without Tyr show the background
Sequence (Q12866 whole entry, looked up): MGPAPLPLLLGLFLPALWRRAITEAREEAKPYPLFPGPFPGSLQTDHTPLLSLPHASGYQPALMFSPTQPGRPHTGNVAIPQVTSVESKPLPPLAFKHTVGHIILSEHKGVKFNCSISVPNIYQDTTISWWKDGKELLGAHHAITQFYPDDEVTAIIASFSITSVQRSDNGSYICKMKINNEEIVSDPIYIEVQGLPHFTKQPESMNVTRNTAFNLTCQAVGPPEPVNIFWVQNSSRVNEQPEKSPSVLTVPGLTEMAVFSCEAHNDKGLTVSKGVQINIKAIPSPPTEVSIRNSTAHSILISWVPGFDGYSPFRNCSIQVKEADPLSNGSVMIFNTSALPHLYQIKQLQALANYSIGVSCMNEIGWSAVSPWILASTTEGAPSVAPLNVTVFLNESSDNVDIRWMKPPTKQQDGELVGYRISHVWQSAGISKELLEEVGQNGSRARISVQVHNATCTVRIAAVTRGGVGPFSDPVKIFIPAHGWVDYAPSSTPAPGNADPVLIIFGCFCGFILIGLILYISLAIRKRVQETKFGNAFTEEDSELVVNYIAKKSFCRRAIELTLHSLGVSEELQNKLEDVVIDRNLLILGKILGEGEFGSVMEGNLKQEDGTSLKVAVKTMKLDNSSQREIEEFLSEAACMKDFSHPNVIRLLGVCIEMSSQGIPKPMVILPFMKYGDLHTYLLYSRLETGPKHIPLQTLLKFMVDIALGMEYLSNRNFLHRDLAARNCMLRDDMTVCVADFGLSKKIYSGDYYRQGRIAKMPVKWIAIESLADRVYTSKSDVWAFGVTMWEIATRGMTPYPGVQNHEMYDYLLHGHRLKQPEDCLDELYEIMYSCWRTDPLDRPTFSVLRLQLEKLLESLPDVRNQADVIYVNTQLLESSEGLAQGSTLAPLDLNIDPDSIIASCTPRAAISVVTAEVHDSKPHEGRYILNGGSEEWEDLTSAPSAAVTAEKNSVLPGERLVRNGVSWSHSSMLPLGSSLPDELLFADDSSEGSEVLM
# if value of phosphorylation enrichment reaches 0.5, tag met; if it stays below, tag not met

>>> class_assignment("PPPPAYDDMAQ [TNK2_Y635_V638M]")
"met"
>>> class_assignment("MSSHHCDFKKF [ZNF445_Y428_Y428C_YF]")
"not met"
>>> class_assignment("ERWLKYFPNEQ [HS3ST5_Y244_I247N]")
"not met"
>>> class_assignment("SQQTYYPVSNM [ABCD1_Y181_R182P]")
"met"
>>> class_assignment("VDFQPYRKHKF [TEX37_Y28_YF]")
"not met"

Task: Could you verify whether the entry AEPTGYSAELS [EZR_Y499] shows phosphorylation enrichment of no less than 0.5?
Output: not met

Task: Could you verify whether the entry YAREGYSALPQ [SARS2_Y52] shows phosphorylation enrichment of no less than 0.5?
Output: not met

----------
target: Grb2 SH2 (UniProt P62993); assay: SH2 binding enrichment of the phosphorylated peptide, bacterial display (enrichment ratio); higher = better substrate or ligand; peptides without Tyr show the background
Sequence (P62993 whole entry, looked up): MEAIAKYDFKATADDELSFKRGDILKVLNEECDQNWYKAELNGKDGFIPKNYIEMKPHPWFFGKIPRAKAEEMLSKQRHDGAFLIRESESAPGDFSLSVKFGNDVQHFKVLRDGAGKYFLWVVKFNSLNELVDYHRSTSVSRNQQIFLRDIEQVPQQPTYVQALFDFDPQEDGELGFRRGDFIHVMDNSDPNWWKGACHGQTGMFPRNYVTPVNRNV
Endpoint label: SH2 binding enrichment
Numbers only.

>>> endpoint_value("AHPIIYTIIEA [PYKtide_no-pT_2014]")
1.21
>>> endpoint_value("LFCVHYFHRTF [SRD5A2_Y91]")
1.3
>>> endpoint_value("ESVNTYLQTSP [NAT1_Y208_M205V]")
0.762
>>> endpoint_value("IIGNGYYFRVF [MYBPC3_Y1135]")
0.852
>>> endpoint_value("TKEPKYEGAGS [KIAA1210_Y1615]")
0.863
>>> endpoint_value("CNTIHYNFMCN [TP53_Y234_T230N_YF]")
1.41
>>> endpoint_value("RLLVVYPWTQG [HBG2_Y36_R41G]")
2.61
>>> endpoint_value("FFRKFCNKSED [RYR1_Y4864_Y4864C]")
0.992
>>> endpoint_value("QEIATYRRLQE [KRT14_Y415_L419Q]")
0.702
>>> endpoint_value("AFAEVYEGQVS [ALK_Y1131_G1128A]")
0.888

Required: SH2 binding enrichment, one value per sequence below.
1. SARHHYESLQT [BIN1_Y157]
2. TLLERYGMTEI [ACSF3_Y355]
3. HLELNYKEDEY [MME_Y502_Y497H]
4. SIKDKHVTALF [KCNH2_Y611_Y611H_YF]

Output:
1: 0.854; 2: 0.907; 3: 0.692; 4: 0.659

----------
Please provide measured phosphorylation enrichment for the entries that follow.
biological target: EPHB2 (UniProt P29323); assay: phosphorylation enrichment, bacterial display (enrichment ratio); higher = better substrate or ligand; peptides without Tyr show the background
Sequence (P29323 whole entry, looked up): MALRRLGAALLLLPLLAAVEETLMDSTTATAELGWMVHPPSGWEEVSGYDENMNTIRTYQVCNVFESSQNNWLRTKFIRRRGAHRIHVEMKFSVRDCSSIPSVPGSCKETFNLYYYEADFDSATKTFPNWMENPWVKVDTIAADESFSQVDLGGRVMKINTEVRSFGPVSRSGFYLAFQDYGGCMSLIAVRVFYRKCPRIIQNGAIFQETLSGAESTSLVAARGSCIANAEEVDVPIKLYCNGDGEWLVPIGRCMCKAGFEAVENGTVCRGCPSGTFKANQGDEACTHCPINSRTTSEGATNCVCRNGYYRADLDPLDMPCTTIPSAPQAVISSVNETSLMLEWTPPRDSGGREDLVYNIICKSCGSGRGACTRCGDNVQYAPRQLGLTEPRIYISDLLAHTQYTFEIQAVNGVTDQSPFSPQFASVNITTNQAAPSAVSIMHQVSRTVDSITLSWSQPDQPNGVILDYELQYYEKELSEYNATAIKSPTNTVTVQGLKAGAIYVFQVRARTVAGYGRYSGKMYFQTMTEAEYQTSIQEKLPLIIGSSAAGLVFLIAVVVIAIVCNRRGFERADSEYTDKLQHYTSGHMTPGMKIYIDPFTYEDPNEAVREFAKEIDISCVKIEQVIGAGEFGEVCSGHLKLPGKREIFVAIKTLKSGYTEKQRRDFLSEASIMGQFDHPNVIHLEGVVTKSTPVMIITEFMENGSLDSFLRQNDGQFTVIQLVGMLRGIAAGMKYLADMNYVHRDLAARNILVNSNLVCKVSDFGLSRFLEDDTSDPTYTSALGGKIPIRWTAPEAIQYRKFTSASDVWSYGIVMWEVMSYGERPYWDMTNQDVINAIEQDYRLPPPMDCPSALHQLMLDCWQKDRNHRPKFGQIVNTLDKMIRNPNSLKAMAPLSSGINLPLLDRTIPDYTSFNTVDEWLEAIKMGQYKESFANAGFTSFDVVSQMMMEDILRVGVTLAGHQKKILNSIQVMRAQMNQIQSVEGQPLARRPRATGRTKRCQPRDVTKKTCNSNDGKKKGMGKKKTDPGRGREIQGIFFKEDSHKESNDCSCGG
Answers are plain numbers.

Required: phosphorylation enrichment, one value per sequence below.
1. ELELLYLDRNS [NYX_Y284]
2. HNMPIYEGFAL [ACTA1_Y168_V165M_YF]
3. ADLLVYIKALN [HPRT1_Y81_D80V]
4. HLQQSNLPRGT [TEX45_Y396_Y396N]

Output:
0.519
32.9
0.628
0.451

Required: phosphorylation enrichment, one value per sequence below.
1. WQQQSYLASGI [CTNNB1_Y30_D32A]
2. HNQDGYSYLSR [LDLR_Y845_P848L]

Output:
0.51
0.889

Required: phosphorylation enrichment, one value per sequence below.
1. KNSFKYYMSDD [ATRX_Y203_C200S]
2. HELYVYKSDEN [DOCK3_Y548_C550S]
3. EVDETYVPKEF [ALB_Y521]
4. TGYRPYVCPFD [YY1_Y383_D380Y]
5. LFCVHYFHRTF [SRD5A2_Y91]

Output:
1. 0.531
2. 0.912
3. 0.64
4. 0.706
5. 1.24

Required: phosphorylation enrichment, one value per sequence below.
1. CTTIHCNFMCN [TP53_Y234_Y234C_YF]
2. RKKEEYKMALY [F8_Y1990]
3. AKVKPYINGTS [IBTK_Y1064_V1065I]
4. SMGHRYIEVFK [HNRNPF_Y82]
5. TLNVRYESVQA [CEACAM7_Y236]

Output:
0.546
0.387
0.274
0.38
0.415

----------
tested on: AncSZ; assay: phosphorylation enrichment, bacterial display (enrichment ratio); higher = better substrate or ligand; peptides without Tyr show the background
# if value of phosphorylation enrichment reaches 0.8, tag rule met; if it stays below, tag rule not met

>>> class_assignment("LLAGLYRGQAL [FGFR4_Y390]")
"rule met"
>>> class_assignment("NPSFNYEIVNR [DYNC1H1_Y3379_YF]")
"rule met"
>>> class_assignment("VHLYAYDWISI [BEST1_Y227_G222V]")
"rule met"
>>> class_assignment("VVPGSYDRLRV [IFT172_Y260_L257P]")
"rule not met"
>>> class_assignment("GGQVFYNSEFG [FLT4_Y1333_YF]")
"rule met"

Task: Could you verify whether the entry CTNPQYLAAGS [RABL3_Y185_R184Q] shows phosphorylation enrichment of no less than 0.8?
Output: rule not met

Task: Could you verify whether the entry QKTGDYFDLFG [PTPN11_Y62_N58K_YF] shows phosphorylation enrichment of no less than 0.8?
Output: rule met

----------
biological target: FGFR3 (UniProt P22607); experiment: phosphorylation enrichment, bacterial display (enrichment ratio); higher = better substrate or ligand; peptides without Tyr show the background
Endpoint label: phosphorylation enrichment
Numbers only.

Worked examples, 5 sequences total:
>>> endpoint_value("LEDEVCAQKMK [TPM2_Y261_Y261C]")
1.16
>>> endpoint_value("ACRSLYGGFVE [MVD_Y164]")
0.727
>>> endpoint_value("LEEFQYIGESQ [MSH2_Y856]")
1.11
>>> endpoint_value("NREGVYRVFAP [TGFBI_Y537_T538R]")
0.495
>>> endpoint_value("ALTRSYVREKV [CYP2C8_Y243_I244V]")
0.522

Required: phosphorylation enrichment, one value per sequence below.
1. RNNTEYVRDIG [MUSK_Y577_I575T]
2. RHTRSYDYMEG [FGF7_Y56]
3. CDYKKYGKGLR [ZNF445_Y433_Y428C]
4. PRSRSYFSTSI [REPS2_Y462_S463F]
5. LGSWTYTKTVS [ROS1_Y144]
6. EYFENYIEELK [PARP4_Y218]
7. ASKEPYFVRCI [MYO1D_Y585_YF]

Output:
1. 0.427
2. 0.529
3. 0.445
4. 0.574
5. 1.44
6. 1.69
7. 0.93

----------
Please provide measured SH2 binding enrichment for the entries that follow.
target: SHP2-C SH2; assay: SH2 binding enrichment of the phosphorylated peptide, bacterial display (enrichment ratio); higher = better substrate or ligand; peptides without Tyr show the background
One number for each entry.

Required: SH2 binding enrichment, one value per sequence below.
1. REVPVYIGEDS [SYNM_Y460]
2. FGRTFYNQAIM [MCCC2_Y196]
3. ILNANCMAKRL [GLDC_Y839_Y839C]
4. HNLDYYKKTTN [FGFR3_Y648]
5. GREAEYSEKHG [EPHB4_Y574_D576E]
6. KDHPDYKFQRR [SOX10_Y171_P175R_YF]
7. QNTGDYFDLFG [PTPN11_Y62_YF]
8. RKRQFYLYKGK [RSPO4_Y112_C107R]

Output:
[0.625, 0.592, 0.727, 0.554, 0.476, 0.701, 0.689, 0.428]

Required: SH2 binding enrichment, one value per sequence below.
1. VDFQPYRKHKF [TEX37_Y28_YF]
2. PRPAGYPSTVS [CACNA1C_Y1832]
3. VRALTYCDLHK [KCNH2_Y827]
4. RMSSSYPTGLA [ADM_Y52]
5. QGIIIYRAAYF [SLC25A4_Y187]
6. ECKHLYSRKEG [PTPN11_Y263_L261H]
7. RIFDFYSARKA [STOX1_Y858_YF]

Output:
0.87
0.621
0.968
0.406
0.642
0.711
0.538

Required: SH2 binding enrichment, one value per sequence below.
1. CDYKKYGKGLR [ZNF445_Y433_Y428C]
2. TFLRTYTDTMQ [TSPAN7_Y124_A127T]
3. AKYLGYPPPEI [KDR_Y357]
4. INITIYGKTFC [EFHC1_Y177_R182C]
5. LANNEYFFRVC
6. TFEFRYLEDRD [CNOT3_Y746_YF]
7. VHLYAYDWISI [BEST1_Y227_G222V]
8. QYQLKYSETPF [SIX6OS1_Y129]

Output:
0.805
0.454
0.749
0.737
0.884
0.96
1.42
0.598

Required: SH2 binding enrichment, one value per sequence below.
1. EVEFQYPFRLH [SYP_Y73_E72Q]
2. ERWLKYFPNEQ [HS3ST5_Y244_I247N]
3. SVTCTGSPALN [TP53_Y126_Y126G]
4. SRDTRYLVLAV [AMH_Y195]
5. AKVKPYINGTS [IBTK_Y1064_V1065I]

Output:
1. 0.462
2. 1.24
3. 0.625
4. 2.34
5. 1.05

Required: SH2 binding enrichment, one value per sequence below.
1. RPFVFYFSFLL [PTEN_Y177_R173P_YF]
2. MSRNLYSGDCY [DDR2_Y736_Y740C]
3. RNFDTYTAGLS [RHBDD1_Y264_YF]
4. NGSFLYVIISQ [LRP1B_Y1988_R1987L]
5. SARHHYESLQT [BIN1_Y157]
6. HYEFKYVINAI [MAOA_Y268_C266F]
7. LFCVHYFHRTF [SRD5A2_Y91]
8. VDDEIYFFRKP [PBRM1_Y1289_YF]

Output:
[1.02, 0.614, 0.514, 0.546, 0.952, 0.69, 1.08, 0.661]

Required: SH2 binding enrichment, one value per sequence below.
1. GSERRYSREGG [PTPRN2_Y139]
2. SSEFHCVGGFF [CTSC_Y347_Y347C_YF]
3. ATPSRYMTFLH [DYNC2H1_Y2872]
4. QPDLLYDHIQP [TRRAP_Y862_F860L]
5. RFLRGYRQDAF [HLA-A_Y137_YF]
6. TTICKYSTPME [GUCY2C_Y839]
7. QQPGPYDRPGA [HNRNPH2_Y210_R206Q]

Output:
1. 0.646
2. 0.64
3. 8.55
4. 0.517
5. 0.888
6. 0.967
7. 0.689

Required: SH2 binding enrichment, one value per sequence below.
1. VHSGTYQVTVR [MYBPC3_Y1043]
2. PVGDVYKKKGL [NMNAT1_Y55_A54V]
3. ANAYIYVVQLP [L1CAM_Y420]

Output:
0.64
0.748
1.44

Required: SH2 binding enrichment, one value per sequence below.
1. GTGTAYLCGVK [ALPL_Y117_A114G]
2. AGQEGYDRLRP [RAC1_Y64_D63G]
3. TLSGIYQYNIA [FOXL2_Y81_I84N]
4. AAVDTVCRHNF [HLA-DRB1_Y107_Y107V_YF]
5. NYSKMYCNPDA [KNL1_Y489_A486S]
6. AEPHTYEEPGR [EPHA8_Y616]
7. GSETPYMDRTP [ESS2_Y335_V336M]
8. FGCGMYSHLQG [LGR4_Y848_D844G_YF]

Output:
[0.679, 0.501, 1.07, 0.479, 0.819, 0.862, 0.788, 0.731]

These data points were gathered from the supplement of paper PMC10065799.
